inhibition at 10 µM listing for selected compounds.
# subjectOfTest: human B1R receptor (bradykinin 1 receptor) (Homo sapiens)
# Construct: host or cells: CHO K1 cells (hB1R cells)
# Sequence (P46663 whole entry): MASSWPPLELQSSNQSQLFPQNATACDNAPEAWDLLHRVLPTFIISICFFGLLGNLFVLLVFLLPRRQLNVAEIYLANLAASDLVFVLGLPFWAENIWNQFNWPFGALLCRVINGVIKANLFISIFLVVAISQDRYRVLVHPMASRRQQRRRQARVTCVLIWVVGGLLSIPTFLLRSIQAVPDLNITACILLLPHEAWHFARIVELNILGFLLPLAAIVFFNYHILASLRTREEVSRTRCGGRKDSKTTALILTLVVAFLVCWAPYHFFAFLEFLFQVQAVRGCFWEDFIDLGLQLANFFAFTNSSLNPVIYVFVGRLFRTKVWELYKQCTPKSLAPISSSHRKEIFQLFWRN
# testMethodNotes: FLIPR Ca2+ assay (Fluo-4) on CHO K1 cells stably transfected with the human B1R gene; % activation and % inhibition at 10 μM
# Assay type: cell-based
# experimentalContext: CHO-K1, test substance 10 μM; CHO K1 hB1R cells; Ca2+ inflow after 0.5 nM Lys-Des-Arg9-bradykinin; read-out: B1R antagonism, human [10 μM] % inhibition

compound: O=C(COCC1CCCN1S(=O)(=O)c1cc(Cl)sc1Cl)N1CCC(O)(Cc2ccccc2)CC1 (centres unmarked)
subjectOfTest: human B1R receptor (bradykinin 1 receptor) (Homo sapiens)
inhibition at 10 µM (%): 13
--
compound: Cc1cc(S(=O)(=O)N2CCCCC2COCC(=O)N2CCC(O)(c3ccccc3)CC2)c(C)cc1Cl (centres unmarked)
subjectOfTest: human B1R receptor (bradykinin 1 receptor) (Homo sapiens)
inhibition at 10 µM (%): 44.9
--
compound: COc1cc(C)c(S(=O)(=O)N(CCOCC(=O)N2CCC(O)(Cc3ccccc3)CC2)Cc2ccccc2)c(C)c1C
subjectOfTest: human B1R receptor (bradykinin 1 receptor) (Homo sapiens)
inhibition at 10 µM (%): 50.7
--
compound: COc1cc(C)c(S(=O)(=O)N2CCCCC2COCCC(=O)N2CCC(O)(c3ccc(Cl)c(C(F)(F)F)c3)CC2)c(C)c1 (centres unmarked)
subjectOfTest: human B1R receptor (bradykinin 1 receptor) (Homo sapiens)
inhibition at 10 µM (%): 39.9
--
compound: Cc1ccc(F)cc1S(=O)(=O)N(C)CCOCC(=O)N1CCC(O)(c2ccccn2)CC1
subjectOfTest: human B1R receptor (bradykinin 1 receptor) (Homo sapiens)
inhibition at 10 µM (%): 35.4
--
compound: COc1cc(C)c(S(=O)(=O)N(CCOCC(=O)N2CCC(O)(c3ccc(Br)cc3)CC2)CC(C)C)c(C)c1C
subjectOfTest: human B1R receptor (bradykinin 1 receptor) (Homo sapiens)
inhibition at 10 µM (%): 105
--
compound: Cc1cc(S(=O)(=O)N(C)CCOCC(=O)N2CCC(O)(c3ccc(Br)cc3)CC2)c(C)cc1Cl
subjectOfTest: human B1R receptor (bradykinin 1 receptor) (Homo sapiens)
inhibition at 10 µM (%): 97.8
--
compound: O=C(COCC1CCCN(S(=O)(=O)c2c(Cl)cc(Cl)cc2Cl)C1)N1CCC(O)(c2ccccc2)CC1 (centres unmarked)
subjectOfTest: human B1R receptor (bradykinin 1 receptor) (Homo sapiens)
inhibition at 10 µM (%): 82.5
--
compound: O=C(COC1CCCN(S(=O)(=O)c2ccccc2)C1)N1CCC(O)(Cc2ccccc2)CC1 (centres unmarked)
subjectOfTest: human B1R receptor (bradykinin 1 receptor) (Homo sapiens)
inhibition at 10 µM (%): 9.32
--
compound: O=C(COC1CCN(S(=O)(=O)c2c(Cl)cc(Cl)cc2Cl)C1)N1CCC(O)(c2ccccc2)CC1 (centres unmarked)
subjectOfTest: human B1R receptor (bradykinin 1 receptor) (Homo sapiens)
inhibition at 10 µM (%): 54.8
--
compound: COc1cc(C)c(S(=O)(=O)N(CCOCC(=O)N2CCC(O)(c3cccc(C(F)(F)F)c3)CC2)CC(C)C)c(C)c1C
subjectOfTest: human B1R receptor (bradykinin 1 receptor) (Homo sapiens)
inhibition at 10 µM (%): 105
--
compound: COc1cc(C)c(S(=O)(=O)N2CCCC2COCC(=O)N2CCC(O)(c3cccc(C(F)(F)F)c3)CC2)c(C)c1 (centres unmarked)
subjectOfTest: human B1R receptor (bradykinin 1 receptor) (Homo sapiens)
inhibition at 10 µM (%): 105
--
compound: COc1cc(C)c(S(=O)(=O)N(CCOCC(=O)N2CCC(O)(Cc3ccccc3)CC2)CC(C)C)c(C)c1C
subjectOfTest: human B1R receptor (bradykinin 1 receptor) (Homo sapiens)
inhibition at 10 µM (%): 99.6
--
compound: O=C(COCC1CCCCN1S(=O)(=O)c1cccc2ccccc12)N1CCC(O)(Cc2ccccc2)CC1 (centres unmarked)
subjectOfTest: human B1R receptor (bradykinin 1 receptor) (Homo sapiens)
inhibition at 10 µM (%): 69.2
--
compound: COc1cc(C)c(S(=O)(=O)N2CCCCC2COCCC(=O)N2CCC(O)(Cc3ccccc3)CC2)c(C)c1 (centres unmarked)
subjectOfTest: human B1R receptor (bradykinin 1 receptor) (Homo sapiens)
inhibition at 10 µM (%): 61.5
--
compound: Cc1cc(S(=O)(=O)N(C)CCOCC(=O)N2CCC(O)(c3cccc(C(F)(F)F)c3)CC2)c(C)cc1Cl
subjectOfTest: human B1R receptor (bradykinin 1 receptor) (Homo sapiens)
inhibition at 10 µM (%): 98.8
--
compound: O=C(COCC1CCCN1S(=O)(=O)c1c(Cl)cc(C(F)(F)F)cc1Cl)N1CCC(O)(c2ccc(Br)cc2)CC1 (centres unmarked)
subjectOfTest: human B1R receptor (bradykinin 1 receptor) (Homo sapiens)
inhibition at 10 µM (%): 41.5
--
compound: O=C(COC1CCN(S(=O)(=O)c2ccc(F)cc2)C1)N1CCC(O)(Cc2ccccc2)CC1 (centres unmarked)
subjectOfTest: human B1R receptor (bradykinin 1 receptor) (Homo sapiens)
inhibition at 10 µM (%): 40.2
--
compound: O=C(COCC1Cc2ccccc2CN1S(=O)(=O)c1ccc(F)cc1)N1CCC(O)(Cc2ccccc2)CC1 (centres unmarked)
subjectOfTest: human B1R receptor (bradykinin 1 receptor) (Homo sapiens)
inhibition at 10 µM (%): 11
--
compound: COc1cc(C)c(S(=O)(=O)N2CCC(OCCC(=O)N3CCC(O)(c4cccc(C(F)(F)F)c4)CC3)C2)c(C)c1 (centres unmarked)
subjectOfTest: human B1R receptor (bradykinin 1 receptor) (Homo sapiens)
inhibition at 10 µM (%): 103
--
compound: O=C(COCC1CCCCN1S(=O)(=O)c1ccccc1C(F)(F)F)N1CCC(O)(c2ccc(Cl)c(C(F)(F)F)c2)CC1 (centres unmarked)
subjectOfTest: human B1R receptor (bradykinin 1 receptor) (Homo sapiens)
inhibition at 10 µM (%): 89.4
--
compound: O=C(CCC1CCCCN1S(=O)(=O)c1cccc(C(F)(F)F)c1)N1CCC(O)(c2ccc(Br)cc2)CC1 (centres unmarked)
subjectOfTest: human B1R receptor (bradykinin 1 receptor) (Homo sapiens)
inhibition at 10 µM (%): 47.9
--
compound: Cc1ccc(S(=O)(=O)N2CCC(OCC(=O)N3CCC(O)(Cc4ccccc4)CC3)C2)cc1 (centres unmarked)
subjectOfTest: human B1R receptor (bradykinin 1 receptor) (Homo sapiens)
inhibition at 10 µM (%): 12.1
--
compound: CN(CCOCC(=O)N1CCC(O)(Cc2ccccc2)CC1)S(=O)(=O)c1cccc(C(F)(F)F)c1
subjectOfTest: human B1R receptor (bradykinin 1 receptor) (Homo sapiens)
inhibition at 10 µM (%): 3.28
--
compound: O=C(COC1CCCN(S(=O)(=O)c2c(Cl)cc(Cl)cc2Cl)C1)N1CCC(O)(c2ccc(Cl)c(C(F)(F)F)c2)CC1 (centres unmarked)
subjectOfTest: human B1R receptor (bradykinin 1 receptor) (Homo sapiens)
inhibition at 10 µM (%): 18
--
compound: COc1cc(C)c(S(=O)(=O)N2CCCCC2COCC(=O)N2CCC(O)(c3cccs3)CC2)c(C)c1 (centres unmarked)
subjectOfTest: human B1R receptor (bradykinin 1 receptor) (Homo sapiens)
inhibition at 10 µM (%): 106
--
compound: O=C(COCC1Cc2ccccc2N1S(=O)(=O)c1ccc(Cl)cc1Cl)N1CCC(O)(c2cccnc2)CC1 (centres unmarked)
subjectOfTest: human B1R receptor (bradykinin 1 receptor) (Homo sapiens)
inhibition at 10 µM (%): 99.8
--
compound: COc1cc(C)cc(C)c1S(=O)(=O)N1CCC(OCC(=O)N2CCC(O)(c3ccc(Br)cc3)CC2)C1 (centres unmarked)
subjectOfTest: human B1R receptor (bradykinin 1 receptor) (Homo sapiens)
inhibition at 10 µM (%): 64.5
--
compound: O=C(COCC1CCCCN1S(=O)(=O)c1cccc(C(F)(F)F)c1)N1CCC(O)(c2ccccn2)CC1 (centres unmarked)
subjectOfTest: human B1R receptor (bradykinin 1 receptor) (Homo sapiens)
inhibition at 10 µM (%): 50.5

###

# subjectOfTest: B1R receptor of the rat (bradykinin 1 receptor) (Rattus norvegicus, UniProt P97583)
# Construct: host or cells: CHO K1 cells (rB1R cells)
# Sequence (P97583 whole entry): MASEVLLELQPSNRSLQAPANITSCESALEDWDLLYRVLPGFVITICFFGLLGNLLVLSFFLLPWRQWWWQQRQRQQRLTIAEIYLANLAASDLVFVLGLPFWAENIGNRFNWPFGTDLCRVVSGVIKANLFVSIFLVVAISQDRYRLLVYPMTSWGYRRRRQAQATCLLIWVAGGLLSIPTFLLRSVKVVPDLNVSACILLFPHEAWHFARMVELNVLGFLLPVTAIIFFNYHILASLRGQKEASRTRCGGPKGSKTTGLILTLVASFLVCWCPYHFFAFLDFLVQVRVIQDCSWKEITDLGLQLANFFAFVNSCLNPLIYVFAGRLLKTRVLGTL
# testMethodNotes: FLIPR Ca2+ assay (Fluo-4) on CHO K1 cells stably transfected with the B1R gene of the rat; % activation and % inhibition at 10 μM
# Assay type: cell-based
# experimentalContext: CHO-K1, test substance 10 μM; CHO K1 rB1R cells; Ca2+ inflow after 100 nM Des-Arg9-bradykinin; read-out: B1R antagonism, rat [10 μM] % inhibition

compound: COc1cc(C)c(S(=O)(=O)N(CCOCC(=O)N2CCC(O)(c3cccc(C(F)(F)F)c3)CC2)CC2CC2)c(C)c1C
unitSymbol: %
inhibition at 10 µM: 100
--
compound: COc1ccc(S(=O)(=O)N2CCC(OCC(=O)N3CCC(O)(Cc4ccccc4)CC3)(c3ccccc3)CC2)cc1
unitSymbol: %
inhibition at 10 µM: 17.9
--
compound: O=C(COCC1CCCCN1S(=O)(=O)c1cccc(C(F)(F)F)c1)N1CCC(O)(c2ccccn2)CC1 (stereo not drawn)
unitSymbol: %
inhibition at 10 µM: 46.2
--
compound: COc1cc(C)c(S(=O)(=O)N2Cc3ccccc3CC2COCC(=O)N2CCC(O)(c3cccnc3)CC2)c(C)c1C (stereo not drawn)
unitSymbol: %
inhibition at 10 µM: 93.5
--
compound: COc1cc(C)c(S(=O)(=O)N2CCC(COCC(=O)N3CCC(O)(c4cccs4)CC3)C2)c(C)c1 (stereo not drawn)
unitSymbol: %
inhibition at 10 µM: 97.8
--
compound: O=C(COCC1CCCN1S(=O)(=O)c1cc(Cl)sc1Cl)N1CCC(O)(c2ccc(Cl)c(C(F)(F)F)c2)CC1 (stereo not drawn)
unitSymbol: %
inhibition at 10 µM: 99.5
--
compound: O=C(COCC1CCCCN1S(=O)(=O)c1csc2ccccc12)N1CCC(O)(c2cccnc2)CC1 (stereo not drawn)
unitSymbol: %
inhibition at 10 µM: 101
--
compound: O=C(COCC1CCCCN1S(=O)(=O)c1c(Cl)cccc1Cl)N1CCC(O)(c2cccnc2)CC1 (stereo not drawn)
unitSymbol: %
inhibition at 10 µM: 96.5
--
compound: O=C(COCC1CCCCN1S(=O)(=O)c1c(Cl)cccc1Cl)N1CCC(O)(c2cccs2)CC1 (stereo not drawn)
unitSymbol: %
inhibition at 10 µM: 99.7
--
compound: O=C(COCC1CCCCN1S(=O)(=O)c1cc(Cl)sc1Cl)N1CCC(O)(c2cccnc2)CC1 (stereo not drawn)
unitSymbol: %
inhibition at 10 µM: 100
--
compound: O=C(COC1CCCCC1N(Cc1ccccc1)S(=O)(=O)c1ccc(Cl)c(Cl)c1)N1CCC(O)(c2ccccn2)CC1 (stereo not drawn)
unitSymbol: %
inhibition at 10 µM: -0.33
--
compound: Cc1cc(S(=O)(=O)N(C)CCOCC(=O)N2CCC(O)(c3ccc(Br)cc3)CC2)c(C)cc1Cl
unitSymbol: %
inhibition at 10 µM: 86.9
--
compound: O=C(COCC1CCCN1S(=O)(=O)c1cc(Cl)sc1Cl)N1CCC(O)(c2cccc(C(F)(F)F)c2)CC1 (stereo not drawn)
unitSymbol: %
inhibition at 10 µM: 80.9
--
compound: COc1ccc(S(=O)(=O)N2CCCCC2CCOCC(=O)N2CCC(O)(c3ccccn3)CC2)cc1 (stereo not drawn)
unitSymbol: %
inhibition at 10 µM: 76.6
--
compound: Cc1cc(S(=O)(=O)N2CCCCC2COCC(=O)N2CCC(O)(c3ccccc3)CC2)c(C)cc1Cl (stereo not drawn)
unitSymbol: %
inhibition at 10 µM: 105
